Readings of pIC50 for the listed compounds
target: Integrin alpha-IIb/beta-3 (Homo sapiens, UniProt P05106+P08514); test: Antagonist activity against integrin alpha2bbeta3 in human platelet rich plasma
Sequence (P05106 27-788 limits assumed): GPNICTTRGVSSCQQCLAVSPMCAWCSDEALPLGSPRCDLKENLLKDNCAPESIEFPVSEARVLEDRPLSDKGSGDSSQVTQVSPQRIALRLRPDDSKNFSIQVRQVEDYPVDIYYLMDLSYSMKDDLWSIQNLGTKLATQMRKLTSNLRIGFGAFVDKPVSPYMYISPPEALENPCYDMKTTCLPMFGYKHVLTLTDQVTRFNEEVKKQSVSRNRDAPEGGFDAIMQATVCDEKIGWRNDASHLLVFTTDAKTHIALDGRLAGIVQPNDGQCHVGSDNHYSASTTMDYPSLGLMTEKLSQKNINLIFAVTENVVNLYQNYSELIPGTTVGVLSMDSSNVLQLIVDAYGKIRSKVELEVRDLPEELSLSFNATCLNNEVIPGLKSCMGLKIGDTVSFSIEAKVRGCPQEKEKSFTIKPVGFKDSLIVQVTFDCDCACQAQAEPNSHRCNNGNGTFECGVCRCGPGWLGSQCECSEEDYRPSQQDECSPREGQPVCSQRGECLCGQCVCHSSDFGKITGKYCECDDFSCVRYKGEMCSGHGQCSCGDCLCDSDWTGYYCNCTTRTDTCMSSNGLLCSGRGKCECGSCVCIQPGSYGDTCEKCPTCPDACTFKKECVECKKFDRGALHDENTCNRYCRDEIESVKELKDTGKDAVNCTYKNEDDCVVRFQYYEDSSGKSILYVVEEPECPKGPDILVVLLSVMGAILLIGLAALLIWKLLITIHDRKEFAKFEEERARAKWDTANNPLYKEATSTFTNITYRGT
Sequence (P08514 32-887 limits assumed): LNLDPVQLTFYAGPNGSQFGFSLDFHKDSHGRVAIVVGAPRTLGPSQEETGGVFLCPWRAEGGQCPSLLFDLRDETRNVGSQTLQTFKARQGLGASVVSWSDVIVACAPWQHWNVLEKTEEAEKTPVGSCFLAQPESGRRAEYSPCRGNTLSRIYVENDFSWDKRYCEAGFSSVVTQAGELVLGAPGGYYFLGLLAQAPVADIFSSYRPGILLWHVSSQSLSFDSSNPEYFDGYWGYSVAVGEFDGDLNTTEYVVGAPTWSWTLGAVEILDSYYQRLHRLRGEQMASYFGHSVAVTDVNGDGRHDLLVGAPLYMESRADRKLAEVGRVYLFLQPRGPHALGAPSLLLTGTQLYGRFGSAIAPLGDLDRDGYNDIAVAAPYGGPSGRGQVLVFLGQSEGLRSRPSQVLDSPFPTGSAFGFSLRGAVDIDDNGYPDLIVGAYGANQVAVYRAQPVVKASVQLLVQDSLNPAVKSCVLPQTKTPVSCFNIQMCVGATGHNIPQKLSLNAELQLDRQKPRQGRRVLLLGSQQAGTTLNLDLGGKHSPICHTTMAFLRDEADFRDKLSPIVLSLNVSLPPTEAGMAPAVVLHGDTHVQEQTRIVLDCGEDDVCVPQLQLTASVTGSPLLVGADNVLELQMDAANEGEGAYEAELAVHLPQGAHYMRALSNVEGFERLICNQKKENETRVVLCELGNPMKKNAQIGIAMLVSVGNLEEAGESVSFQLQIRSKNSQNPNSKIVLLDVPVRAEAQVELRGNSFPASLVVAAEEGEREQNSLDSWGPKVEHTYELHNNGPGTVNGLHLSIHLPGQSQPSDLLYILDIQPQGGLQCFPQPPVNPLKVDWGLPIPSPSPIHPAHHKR
Sequence (P08514 891-1039 limits assumed): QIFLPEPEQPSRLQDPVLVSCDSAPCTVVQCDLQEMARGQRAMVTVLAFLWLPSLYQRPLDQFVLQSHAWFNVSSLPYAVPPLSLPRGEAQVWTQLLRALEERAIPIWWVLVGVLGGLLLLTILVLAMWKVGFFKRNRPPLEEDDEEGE
// pIC50 here means minus log10 of the molar concentration (mol/L)

N=C(N)c1ccc2cc(OC(=O)c3ccc(N=C(N)N)cc3)ccc2c1    4.90

Proceeding to the next compound to report its pIC50.
Q: Data request, read-out pIC50, for `CCc1nn2c(=O)cc(N3CCNCC3)nc2s1`
A: 4.89

---

target: Integrin alpha-IIb/beta-3 (Homo sapiens, UniProt P05106+P08514); experiment: Inhibition of FITC-labeled fibrinogen binding to integrin alpha2bbeta3 open form in human washed platelets
Outcome Measure: IC50
Give me the value, and tack the unit on after it.

Q: Data request, read-out IC50, for `CCCCS(=O)(=O)N[C@H](CNC(=O)CCNC(=O)c1ccc2c(c1)CNCC2)C(=O)O`
A: 79 nM

Q: Check `CCCCS(=O)(=O)N[C@@H](CNC(=O)CCNC(=O)c1ccc2c(c1)CNCC2)C(=O)O` too.
A: 62 nM

Q: Check `O=C(CCNC(=O)c1ccc2c(c1)CNCC2)NC[C@H](NS(=O)(=O)c1ccccc1)C(=O)O` too.
A: 0.22 nM

Q: Check `O=C(CCNC(=O)c1ccc2c(c1)CNCC2)NC[C@@H](NS(=O)(=O)c1ccccc1)C(=O)O` too.
A: 0.96 nM
